# Target system: Neuropeptide Y receptor type 2 (Homo sapiens, UniProt P49146)
# Sequence (P49146 whole entry): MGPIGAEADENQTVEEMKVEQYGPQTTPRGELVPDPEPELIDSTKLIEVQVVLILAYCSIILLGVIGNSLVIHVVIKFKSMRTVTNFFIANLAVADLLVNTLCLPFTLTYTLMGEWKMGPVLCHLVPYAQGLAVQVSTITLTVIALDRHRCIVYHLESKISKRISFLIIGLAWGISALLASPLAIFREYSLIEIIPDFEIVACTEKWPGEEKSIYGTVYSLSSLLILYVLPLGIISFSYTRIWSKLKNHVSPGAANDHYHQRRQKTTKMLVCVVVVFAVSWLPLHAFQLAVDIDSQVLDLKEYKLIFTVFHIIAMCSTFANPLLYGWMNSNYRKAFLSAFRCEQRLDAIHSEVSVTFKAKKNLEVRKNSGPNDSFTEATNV
# Test description: Displacement of [125I]-PYY from human Y2R expressed in CHO cell membranes after 60 mins by liquid scintillation method
Where a SMILES comes first, the peptide text is derived from it. [ ]: non-standard residue; d: D form. ξ: configuration not given here. ξCha = NC(CC1CCCCC1)C(=O)O; Aib = CC(C)(N)C(=O)O; ξAbu = CCC(N)C(=O)O; Sar = CNCC(=O)O
Metric: pIC50
Give bare numbers, as −log10 of the molar value.

These solved cases illustrate the format of a correct answer.
CC(=O)N[C@@H](CO)C(=O)N(C)CC(=O)N[C@@H](CCCNC(=N)N)C(=O)N[C@@H](Cc1cnc[nH]1)C(=O)NC(CC1CCCCC1)C(=O)NC(CC1CCCCC1)C(=O)N[C@@H](CC(N)=O)C(=O)N[C@@H](CC(C)C)C(=O)NC(C)(C)C(=O)N[C@H](C(=O)N[C@@H](CCCNC(=N)N)C(=O)N[C@@H](CCC(N)=O)C(=O)N[C@@H](CCCNC(=N)N)C(=O)NC(CC1CCCCC1)C(N)=O)[C@@H](C)O (stereo not given in full) (Ac-S[Sar]RH[ξCha][ξCha]NL[Aib]TRQR[ξCha]-NH2); 8.55
CC(=O)N[C@@H](CO)C(=O)N1CCC[C@@H]1C(=O)N[C@@H](CCCNC(=N)N)C(=O)N[C@@H](Cc1cnc[nH]1)C(=O)NC(CC1CCCCC1)C(=O)NC(CC1CCCCC1)C(=O)N[C@@H](CC(N)=O)C(=O)N[C@@H](CC(C)C)C(=O)NC(C)(C)C(=O)N[C@H](C(=O)N[C@@H](CCCNC(=N)N)C(=O)N[C@@H](CCC(N)=O)C(=O)N[C@@H](CCCNC(=N)N)C(=O)NC(CC1CCCCC1)C(N)=O)[C@@H](C)O (stereo not given in full); 8.82
CC(=O)N[C@@H](CO)C(=O)N(C)[C@H](C)C(=O)N[C@@H](CCCNC(=N)N)C(=O)N[C@@H](Cc1cnc[nH]1)C(=O)NC(CC1CCCCC1)C(=O)NC(CC1CCCCC1)C(=O)N[C@@H](CC(N)=O)C(=O)N[C@@H](CC(C)C)C(=O)NC(C)(C)C(=O)N[C@H](C(=O)N[C@@H](CCCNC(=N)N)C(=O)N[C@@H](CCC(N)=O)C(=O)N[C@@H](CCCNC(=N)N)C(=O)NC(CC1CCCCC1)C(N)=O)[C@@H](C)O (stereo not given in full); 8.55
CCC(NC(=O)[C@H](CCCNC(=N)N)NC(=O)[C@H](CC(C)C)NC(=O)[C@H](CO)NC(=O)[C@H](C)NC(C)=O)C(=O)NC(CC1CCCCC1)C(=O)NC(CC1CCCCC1)C(=O)N[C@@H](CC(N)=O)C(=O)N[C@@H](CC(C)C)C(=O)NC(C)(C)C(=O)N[C@H](C(=O)N[C@@H](CCCNC(=N)N)C(=O)N[C@@H](CCC(N)=O)C(=O)N[C@@H](CCCNC(=N)N)C(=O)NC(CC1CCCCC1)C(N)=O)[C@@H](C)O (stereo not given in full) (Ac-ASLR[ξAbu][ξCha][ξCha]NL[Aib]TRQR[ξCha]-NH2); 8.17

Problem: Fill blank: measured pIC50 of the compound CC(=O)N[C@@H](CO)C(=O)N(C)[C@@H](C)C(=O)N[C@@H](CCCNC(=N)N)C(=O)N[C@@H](Cc1cnc[nH]1)C(=O)NC(CC1CCCCC1)C(=O)NC(CC1CCCCC1)C(=O)N[C@@H](CC(N)=O)C(=O)N[C@@H](CC(C)C)C(=O)NC(C)(C)C(=O)N[C@H](C(=O)N[C@@H](CCCNC(=N)N)C(=O)N[C@@H](CCC(N)=O)C(=O)N[C@@H](CCCNC(=N)N)C(=O)NC(CC1CCCCC1)C(N)=O)[C@@H](C)O (stereo not given in full) is ____.
Solution: 8.27

###

# Target system: UniProt:P49146
# Sequence (P49146 whole entry): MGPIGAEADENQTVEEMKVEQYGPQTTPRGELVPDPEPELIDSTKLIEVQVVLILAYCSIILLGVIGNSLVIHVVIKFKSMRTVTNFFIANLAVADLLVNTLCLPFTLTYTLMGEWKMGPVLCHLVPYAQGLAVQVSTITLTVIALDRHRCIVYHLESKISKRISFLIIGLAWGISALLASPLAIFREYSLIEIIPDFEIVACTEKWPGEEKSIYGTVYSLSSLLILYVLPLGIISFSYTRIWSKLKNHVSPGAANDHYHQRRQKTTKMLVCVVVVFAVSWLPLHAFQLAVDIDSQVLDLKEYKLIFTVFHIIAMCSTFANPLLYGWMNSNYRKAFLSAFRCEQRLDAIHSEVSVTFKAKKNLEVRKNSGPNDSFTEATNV
# Test description: Agonist activity at human Y2R expressed in CHO cell membranes assessed as [35S]GTPgammaS binding after 120 mins by liquid scintillation method
Where a SMILES comes first, the peptide text is derived from it. [ ]: non-standard residue; d: D form. ξ: configuration not given here. ξCha = NC(CC1CCCCC1)C(=O)O; Aib = CC(C)(N)C(=O)O; Sar = CNCC(=O)O
Metric: EC50 (nM)
Answers are plain numbers, in nM.

CC(=O)N[C@@H](CO)C(=O)NC(C)(C)C(=O)N[C@@H](CCCNC(=N)N)C(=O)N[C@@H](Cc1cnc[nH]1)C(=O)NC(CC1CCCCC1)C(=O)NC(CC1CCCCC1)C(=O)N[C@@H](CC(N)=O)C(=O)N[C@@H](CC(C)C)C(=O)NC(C)(C)C(=O)N[C@H](C(=O)N[C@@H](CCCNC(=N)N)C(=O)N[C@@H](CCC(N)=O)C(=O)N[C@@H](CCCNC(=N)N)C(=O)NC(CC1CCCCC1)C(N)=O)[C@@H](C)O (some centres not stated) (Ac-S[Aib]RH[ξCha][ξCha]NL[Aib]TRQR[ξCha]-NH2); 0.55

Note: attention shifts to another entry.
Problem: Report EC50 for CC(=O)N[C@@H](CO)C(=O)N(C)CC(=O)N[C@@H](CCCNC(=N)N)C(=O)N[C@@H](Cc1cnc[nH]1)C(=O)NC(CC1CCCCC1)C(=O)NC(CC1CCCCC1)C(=O)N[C@@H](CC(N)=O)C(=O)N[C@@H](CC(C)C)C(=O)NC(C)(C)C(=O)N[C@H](C(=O)N[C@@H](CCCNC(=N)N)C(=O)N[C@@H](CCC(N)=O)C(=O)N[C@@H](CCCNC(=N)N)C(=O)NC(CC1CCCCC1)C(N)=O)[C@@H](C)O (some centres not stated) (Ac-S[Sar]RH[ξCha][ξCha]NL[Aib]TRQR[ξCha]-NH2) tested on UniProt:P49146.
Solution: 1

###

I'd be grateful if you could share measured AUC(0-t) at 24 h for these entries.
# Test description: AUC (0 to 24 hrs) in C57BL/6J mouse at 1 mg/kg through subcutaneous administration after 24 hrs by LC-MS/MS analysis
# Type: ADME, organism-based
# Parameters: time < 24 hr, dose 1 mg/kg, route subcutaneous
# Measurement conditions: in vivo, sc
Where a SMILES comes first, the peptide text is derived from it. [ ]: non-standard residue; d: D form. The star is where a group is joined. ξ: configuration not given here. ξCha = NC(CC1CCCCC1)C(=O)O; Aib = CC(C)(N)C(=O)O; Bz = O=C(c1ccccc1)*
Answers are plain numbers, in µM·h.

CC(C)C[C@H](NC(=O)[C@H](CC(N)=O)NC(=O)C(CC1CCCCC1)NC(=O)C(CC1CCCCC1)NC(=O)[C@H](Cc1cnc[nH]1)NC(=O)[C@H](CCCNC(=N)N)NC(=O)c1ccccc1)C(=O)NC(C)(C)C(=O)N[C@H](C(=O)N[C@@H](CCCNC(=N)N)C(=O)N[C@@H](CCC(N)=O)C(=O)N[C@@H](CCCNC(=N)N)C(=O)NC(CC1CCCCC1)C(N)=O)[C@@H](C)O (some centres not stated) (Bz-RH[ξCha][ξCha]NL[Aib]TRQR[ξCha]-NH2); 0.209

Problem: Fill blank: measured AUC(0-t) at 24 h of the compound "CC(=O)N[C@@H](CO)C(=O)N1C[C@@H](O)C[C@@H]1C(=O)N[C@@H](CCCNC(=N)N)C(=O)N[C@@H](Cc1cnc[nH]1)C(=O)N[C@@H](CC1CCCCC1)C(=O)N[C@@H](CC1CCCCC1)C(=O)N[C@@H](CC(N)=O)C(=O)N[C@@H](CC(C)C)C(=O)NC(C)(C)C(=O)N[C@H](C(=O)N[C@@H](CCCNC(=N)N)C(=O)N[C@@H](CCC(N)=O)C(=O)N[C@@H](CCCNC(=N)N)C(=O)N[C@@H](CC1CCCCC1)C(N)=O)[C@@H](C)O" is ____.
Solution: 0.0336

Measured values drawn from ChEMBL document CHEMBL4033754 for this set.
